Values were extracted from patent US11225505B2.

system: Pseudomonas aeruginosa ATCC 27853; format: cell-based; settings: ATCC 27853
Where a SMILES comes first, the peptide text is derived from it. Bridges are numbered along the chain shown (N, C = ends). [ ]: non-standard residue; d: D form. The star is where a group is joined. X25 = O=C(c1ccnc(Cl)c1)*; X29 = O=C(c1cc(Cl)ccn1)*; Dab = NCC[C@H](N)C(=O)O; Abu = CC[C@H](N)C(=O)O; Dap = NC[C@H](N)C(=O)O
Measured metric: Minimum inhibitory concentration (mg/L)
Give the value in mg/L but do not write mg/L after it.

Which Minimum inhibitory concentration value belongs to CC[C@@H]1NC(=O)[C@@H](CC(C)C)NC(=O)[C@H](CCN)NC(=O)[C@@H](NC(=O)[C@H](CN)NC(=O)[C@@H](NC(=O)[C@H](CCN)NC(=O)c2ccnc(Cl)c2)[C@@H](C)O)CCNC(=O)[C@H]([C@@H](C)O)NC(=O)[C@H](CCN)NC(=O)[C@H](CCN)NC1=O [Compound 24] (X25-[Dab]T[Dap][Dab][Dab][dL][Abu][Dab][Dab]T; lactam 4-C) ?
0.25

API: the following record is the query input.
Name the reported Minimum inhibitory concentration value associated with the compound CC(C)C[C@H]1NC(=O)[C@H](CCN)NC(=O)[C@@H](NC(=O)[C@H](CN)NC(=O)[C@@H](NC(=O)[C@H](CCN)NC(=O)c2cc(Cl)ccn2)[C@@H](C)O)CCNC(=O)[C@H]([C@@H](C)O)NC(=O)[C@H](CCN)NC(=O)[C@H](CCN)NC(=O)[C@H](C)NC1=O [Compound 97] (X29-[Dab]T[Dap][Dab][Dab][dL]A[Dab][Dab]T; lactam 4-C)
0.25

====

test system: Pseudomonas aeruginosa ATCC 27853; type: cell-based; conditions: ATCC 27853
Where a SMILES comes first, the peptide text is derived from it. Bridges are numbered along the chain shown (N, C = ends). [ ]: non-standard residue; d: D form. The star is where a group is joined. X22 = Cn1c(C(=O)*)cc2ccccc21; X42 = O=C(c1nc2ccccc2[nH]1)*; X69 = Cn1c(C(=O)*)nc2ccccc21; X36 = O=C(c1ncc(Br)cc1Br)*; X50 = O=C(c1sc(Br)cc1Br)*; X29 = O=C(c1cc(Cl)ccn1)*; Dab = NCC[C@H](N)C(=O)O; Abu = CC[C@H](N)C(=O)O; Dap = NC[C@H](N)C(=O)O
Measured metric: Minimum inhibitory concentration (mg/L)
Give just the number in mg/L; leave the unit off.

Fill in the recorded Minimum inhibitory concentration for this compound, with Pseudomonas aeruginosa ATCC 27853 as test system: CC[C@@H]1NC(=O)[C@@H](CC(C)C)NC(=O)[C@H](CCN)NC(=O)[C@@H](NC(=O)[C@H](CN)NC(=O)[C@@H](NC(=O)[C@H](CCN)NC(=O)c2nc3ccccc3[nH]2)[C@@H](C)O)CCNC(=O)[C@H]([C@@H](C)O)NC(=O)[C@H](CCN)NC(=O)[C@H](CCN)NC1=O [Compound 47] (X42-[Dab]T[Dap][Dab][Dab][dL][Abu][Dab][Dab]T; lactam 4-C)
0.5

More entries:
Form: Entry = CC[C@@H]1NC(=O)[C@@H](CC(C)C)NC(=O)[C@H](CCN)NC(=O)[C@@H](NC(=O)[C@H](CN)NC(=O)[C@@H](NC(=O)[C@H](CCN)NC(=O)c2sc(Br)cc2Br)[C@@H](C)O)CCNC(=O)[C@H]([C@@H](C)O)NC(=O)[C@H](CCN)NC(=O)[C@H](CCN)NC1=O [Compound 85] (X50-[Dab]T[Dap][Dab][Dab][dL][Abu][Dab][Dab]T; lactam 4-C) | System = Pseudomonas aeruginosa ATCC 27853 | Minimum inhibitory concentration = ____
0.25

Record CC(C)C[C@H]1NC(=O)[C@H](CCN)NC(=O)[C@@H](NC(=O)[C@H](CN)NC(=O)[C@@H](NC(=O)[C@H](CCN)NC(=O)c2ncc(Br)cc2Br)[C@@H](C)O)CCNC(=O)[C@H]([C@@H](C)O)NC(=O)[C@H](CCN)NC(=O)[C@H](CCN)NC(=O)[C@H]([C@@H](C)O)NC1=O [Compound 29] (X36-[Dab]T[Dap][Dab][Dab][dL]T[Dab][Dab]T; lactam 4-C) : what is its Minimum inhibitory concentration with Pseudomonas aeruginosa ATCC 27853?
1

Entry CC(C)C[C@H]1NC(=O)[C@H](CCN)NC(=O)[C@@H](NC(=O)[C@H](CN)NC(=O)[C@@H](NC(=O)[C@H](CCN)NC(=O)c2cc(Cl)ccn2)[C@@H](C)O)CCNC(=O)[C@H]([C@@H](C)O)NC(=O)[C@H](CCN)NC(=O)[C@H](CCN)NC(=O)[C@H]([C@@H](C)O)NC1=O [Compound 98] (X29-[Dab]T[Dap][Dab][Dab][dL]T[Dab][Dab]T; lactam 4-C) , system Pseudomonas aeruginosa ATCC 27853: what Minimum inhibitory concentration was measured?
0.25

Find the measured Minimum inhibitory concentration: item CC[C@@H]1NC(=O)[C@@H](CC(C)C)NC(=O)[C@H](CCN)NC(=O)[C@@H](NC(=O)[C@H](CN)NC(=O)[C@@H](NC(=O)[C@H](CCN)NC(=O)c2cc3ccccc3n2C)[C@@H](C)O)CCNC(=O)[C@H]([C@@H](C)O)NC(=O)[C@H](CCN)NC(=O)[C@H](CCN)NC1=O [Compound 48] (X22-[Dab]T[Dap][Dab][Dab][dL][Abu][Dab][Dab]T; lactam 4-C) , target or system Pseudomonas aeruginosa ATCC 27853.
0.25

# query: Minimum inhibitory concentration | item CC[C@@H]1NC(=O)[C@@H](CC(C)C)NC(=O)[C@H](CCN)NC(=O)[C@@H](NC(=O)[C@H](CN)NC(=O)[C@@H](NC(=O)[C@H](CCN)NC(=O)c2nc3ccccc3n2C)[C@@H](C)O)CCNC(=O)[C@H]([C@@H](C)O)NC(=O)[C@H](CCN)NC(=O)[C@H](CCN)NC1=O [Compound 57] (X69-[Dab]T[Dap][Dab][Dab][dL][Abu][Dab][Dab]T; lactam 4-C) | system: Pseudomonas aeruginosa ATCC 27853
0.5

====

# key: entry, value: Minimum inhibitory concentration
Tested on: Pseudomonas aeruginosa ATCC 27853
Assay type: cell-based
Settings: ATCC 27853
Description: MICs of the lipopeptides (trifluoroacetic acid salt, TFA) were determined by broth microdilution in cation-adjusted Mueller-Hinton broth (CAMHB) (Oxoid Australia, Thebarton, SA, Australia) according to the Clinical and Laboratory Standards Institute protocol (Clinical and Laboratory Standards Institute, Performance standards for antimicrobial susceptibility testing; twentyforth informational supplement M100-S24. Wayne, Pa., 2014). Polymyxin B sulphate was employed as the control. […]
Where a SMILES comes first, the peptide text is derived from it. Bridges are numbered along the chain shown (N, C = ends). [ ]: non-standard residue; d: D form. The star is where a group is joined. Propanoyl(3-indol-3-yl) = O=C(CCc1c[nH]c2ccccc12)*; Quinoxaline2carbonyl = O=C(c1cnc2ccccc2n1)*; X41 = O=C(c1cc2cc(F)c(F)cc2[nH]1)*; X18 = O=C(c1cc(-c2ccccc2)[nH]n1)*; X23 = O=C(c1cc2ccccc2[nH]1)*; X56 = Cn1cc(C(=O)*)c2ccccc21; X34 = O=C(c1cc(Br)c(Br)o1)*; X5 = Cc1ccc2nc(C(=O)*)cn2c1; Dab = NCC[C@H](N)C(=O)O; X70 = O=C(c1csc(Br)c1)*; Abu = CC[C@H](N)C(=O)O; Dap = NC[C@H](N)C(=O)O; X31 = O=C(c1ncccc1Cl)*
Your answer should be a plain number; it is taken to be in µg/mL.

Consider the molecule shown here: CC[C@@H]1NC(=O)[C@@H](CC(C)C)NC(=O)[C@H](CCN)NC(=O)[C@@H](NC(=O)[C@H](CN)NC(=O)[C@@H](NC(=O)[C@H](CCN)NC(=O)c2cc(Br)c(Br)o2)[C@@H](C)O)CCNC(=O)[C@H]([C@@H](C)O)NC(=O)[C@H](CCN)NC(=O)[C@H](CCN)NC1=O [Compound 79] (X34-[Dab]T[Dap][Dab][Dab][dL][Abu][Dab][Dab]T; lactam 4-C) What is its recorded Minimum inhibitory concentration?
0.25

Given CC[C@@H]1NC(=O)[C@@H](CC(C)C)NC(=O)[C@H](CCN)NC(=O)[C@@H](NC(=O)[C@H](CN)NC(=O)[C@@H](NC(=O)[C@H](CCN)NC(=O)c2csc(Br)c2)[C@@H](C)O)CCNC(=O)[C@H]([C@@H](C)O)NC(=O)[C@H](CCN)NC(=O)[C@H](CCN)NC1=O [Compound 101] (X70-[Dab]T[Dap][Dab][Dab][dL][Abu][Dab][Dab]T; lactam 4-C) , state its recorded Minimum inhibitory concentration.
0.25

Entry CC[C@@H]1NC(=O)[C@@H](CC(C)C)NC(=O)[C@H](CCN)NC(=O)[C@@H](NC(=O)[C@H](CN)NC(=O)[C@@H](NC(=O)[C@H](CCN)NC(=O)c2ncccc2Cl)[C@@H](C)O)CCNC(=O)[C@H]([C@@H](C)O)NC(=O)[C@H](CCN)NC(=O)[C@H](CCN)NC1=O [Compound 36] (X31-[Dab]T[Dap][Dab][Dab][dL][Abu][Dab][Dab]T; lactam 4-C) : reported Minimum inhibitory concentration = ?
0.5

GET /values?readout=Minimum inhibitory concentration&item= CC[C@@H]1NC(=O)[C@@H](CC(C)C)NC(=O)[C@H](CCN)NC(=O)[C@@H](NC(=O)[C@H](CN)NC(=O)[C@@H](NC(=O)[C@H](CCN)NC(=O)c2cn(C)c3ccccc23)[C@@H](C)O)CCNC(=O)[C@H]([C@@H](C)O)NC(=O)[C@H](CCN)NC(=O)[C@H](CCN)NC1=O [Compound 63] (X56-[Dab]T[Dap][Dab][Dab][dL][Abu][Dab][Dab]T; lactam 4-C)
0.5

Can you share its Minimum inhibitory concentration? I mean this molecule: CC[C@@H]1NC(=O)[C@@H](CC(C)C)NC(=O)[C@H](CCN)NC(=O)[C@@H](NC(=O)[C@H](CN)NC(=O)[C@@H](NC(=O)[C@H](CCN)NC(=O)c2cnc3ccccc3n2)[C@@H](C)O)CCNC(=O)[C@H]([C@@H](C)O)NC(=O)[C@H](CCN)NC(=O)[C@H](CCN)NC1=O [Compound 46] (Quinoxaline2carbonyl-[Dab]T[Dap][Dab][Dab][dL][Abu][Dab][Dab]T; lactam 4-C)
0.5

Param item = CC[C@@H]1NC(=O)[C@@H](CC(C)C)NC(=O)[C@H](CCN)NC(=O)[C@@H](NC(=O)[C@H](CN)NC(=O)[C@@H](NC(=O)[C@H](CCN)NC(=O)c2cn3cc(C)ccc3n2)[C@@H](C)O)CCNC(=O)[C@H]([C@@H](C)O)NC(=O)[C@H](CCN)NC(=O)[C@H](CCN)NC1=O [Compound 49] (X5-[Dab]T[Dap][Dab][Dab][dL][Abu][Dab][Dab]T; lactam 4-C) ; retrieve measured Minimum inhibitory concentration.
0.25

Quick one: Minimum inhibitory concentration for CC[C@@H]1NC(=O)[C@@H](CC(C)C)NC(=O)[C@H](CCN)NC(=O)[C@@H](NC(=O)[C@H](CN)NC(=O)[C@@H](NC(=O)[C@H](CCN)NC(=O)c2cc(-c3ccccc3)[nH]n2)[C@@H](C)O)CCNC(=O)[C@H]([C@@H](C)O)NC(=O)[C@H](CCN)NC(=O)[C@H](CCN)NC1=O [Compound 84] (X18-[Dab]T[Dap][Dab][Dab][dL][Abu][Dab][Dab]T; lactam 4-C) ?
0.25

Fill in the blank: the reported Minimum inhibitory concentration of CC[C@@H]1NC(=O)[C@@H](CC(C)C)NC(=O)[C@H](CCN)NC(=O)[C@@H](NC(=O)[C@H](CN)NC(=O)[C@@H](NC(=O)[C@H](CCN)NC(=O)c2cc3cc(F)c(F)cc3[nH]2)[C@@H](C)O)CCNC(=O)[C@H]([C@@H](C)O)NC(=O)[C@H](CCN)NC(=O)[C@H](CCN)NC1=O [Compound 60] (X41-[Dab]T[Dap][Dab][Dab][dL][Abu][Dab][Dab]T; lactam 4-C) is ____.
0.5

Requested field: Minimum inhibitory concentration. Item: CC[C@@H]1NC(=O)[C@@H](CC(C)C)NC(=O)[C@H](CCN)NC(=O)[C@@H](NC(=O)[C@H](CN)NC(=O)[C@@H](NC(=O)[C@H](CCN)NC(=O)CCc2c[nH]c3ccccc23)[C@@H](C)O)CCNC(=O)[C@H]([C@@H](C)O)NC(=O)[C@H](CCN)NC(=O)[C@H](CCN)NC1=O [Compound 104] ({Propanoyl(3-indol-3-yl)}-[Dab]T[Dap][Dab][Dab][dL][Abu][Dab][Dab]T; lactam 4-C)
0.25

Query (molecule): CC[C@@H]1NC(=O)[C@@H](CC(C)C)NC(=O)[C@H](CCN)NC(=O)[C@@H](NC(=O)[C@H](CN)NC(=O)[C@@H](NC(=O)[C@H](CCN)NC(=O)c2cc3ccccc3[nH]2)[C@@H](C)O)CCNC(=O)[C@H]([C@@H](C)O)NC(=O)[C@H](CCN)NC(=O)[C@H](CCN)NC1=O [Compound 56] (X23-[Dab]T[Dap][Dab][Dab][dL][Abu][Dab][Dab]T; lactam 4-C) ; field requested: Minimum inhibitory concentration
0.25
